Quick reference: MIC against C. diversus of the listed items.
- System: Citrobacter diversus
- ASSAY_OVERVIEW: MIC against Gram-negative bacteria: Citrobacter diversus
- Type: cell-based
- CONDITION_SET: Citrobacter diversus; 96-well plate, 5×10^5 CFU/mL, 37° C., 10 h
VALUE_KIND: MIC against C. diversus

INSERT INTO assay_data (substance, tgt, assay_value) VALUES
  ('PRT1212 (DIDECSGNPCLHGALCENTHGSYHCNCSHEYRGRHCE; listed as Homo sapiens)', 'Citrobacter diversus', '12.5 µg/mL'),
  ('PRT1333 (PIPECAALLCPENSRCSPSTEDENKLECKCLPNYRGDGKYCD; listed as Homo sapiens)', 'Citrobacter diversus', '12.5 µg/mL'),
  ('PRT1210 (SVNPCSSKPCLYGGTCVVDNGGFVCQCRGLYTGQRCQ; listed as Homo sapiens)', 'Citrobacter diversus', '12.5 µg/mL'),
  ('PRT1308 (TSPQCPRKCDPNANCVQDSAGASTCACAAGYSGNGIFCS; listed as Homo sapiens)', 'Citrobacter diversus', '25 µg/mL');

* * *

- Test system: Klebsiella pneumonia
- ASSAY_OVERVIEW: MIC against Gram-negative bacteria: Klebsiella pneumonia
- Format: cell-based
- CONDITION_SET: K. pneumonia; 10 h cultivation at 37° C.; 5×10^5 CFU/mL
VALUE_KIND: MIC (µg/mL)

INSERT INTO measurements (substance, tgt, assay_value) VALUES
  ('PRT312 (DNNECTSDINLCGSKGICQNTPGSFTCECQRGFSLDQTGSSCE; listed as Homo sapiens)', 'Klebsiella pneumonia', 25),
  ('PRT420 (DIDECVTGIHNCSINETCFNIQGGFRCLAFECPENYRRSAATLQQEKTDTVRCI; listed as Homo sapiens)', 'Klebsiella pneumonia', 25),
  ('PRT425 (DVDECAMGTHTCQPGFLCQNTKGSFYCQARQRCMDGFLQDPEGNCV; listed as Homo sapiens)', 'Klebsiella pneumonia', 25),
  ('PRT369 (DVDECLSSPCVSGVCRNLAGSYTCKCGPGSRLDPSGTFCL; listed as Homo sapiens)', 'Klebsiella pneumonia', 50),
  ('PRT435 (DMDECSFSEFLCQHECVNQPGTYFCSCPPGYILLDDNRSCQ; listed as Homo sapiens)', 'Klebsiella pneumonia', 25),
  ('PRT416 (DVDECAPPAEPCGKGHRCVNSPGSFRCECKTGYYFDGISRMCV; listed as Homo sapiens)', 'Klebsiella pneumonia', 25),
  ('PRT443 (DIDECENTDACQHECKNTFGSYQCICPPGYQLTHNGKTCQ; listed as Homo sapiens)', 'Klebsiella pneumonia', 12.5),
  ('PRT317 (VTDYCQLVRYLCQNGRCIPTPGSCRCECNKGFQLDLRGECI; listed as Homo sapiens)', 'Klebsiella pneumonia', 50),
  ('PRT428 (DVNECWASPGRLCQHTCENTLGSYRCSCASGFLLAADGKRCE; listed as Homo sapiens)', 'Klebsiella pneumonia', 25),
  ('PRT440 (DVNECRQNVCRPDQHCKNTRGGYKCIDLCPNGMTKAENGTCI; listed as Homo sapiens)', 'Klebsiella pneumonia', 12.5),
  ('PRT439 (DINECQESSPCHQRCFNAIGSFHCGCEPGYQLKGRKCM; listed as Homo sapiens)', 'Klebsiella pneumonia', 50);

* * *

- Test system: Citrobacter diversus
- ASSAY_OVERVIEW: MIC against Gram-negative bacteria: Citrobacter diversus
- Type: cell-based
- CONDITION_SET: 10 h cultivation at 37° C., 5×10^5 CFU/mL, two-fold serial dilution
Quick reference: MIC C. diversus of the listed items.
VALUE_KIND: MIC C. diversus (µg/mL)

INSERT INTO assay_data (substance, tgt, value_kind, assay_value) VALUES
  ('PRT1151 (QFASCENNPCGNGATCVPKSGTDIVCLCPYGRSGPLCT; listed as Homo sapiens)', 'Citrobacter diversus', 'MIC C. diversus', 12.5),
  ('PRT1156 (IIGQCQPHVCFHGNCSNITSNSFICECDEQFSGPFCE; listed as Homo sapiens)', 'Citrobacter diversus', 'MIC C. diversus', 25),
  ('PRT1180 (DIDYCEPNPCQNGAQCYNRASDYFCKCPEDYEGKNCS; listed as Homo sapiens)', 'Citrobacter diversus', 'MIC C. diversus', 25),
  ('PRT1129 (PVTNCASSPCQNGGTCLQHTQVSYECLCKPEFTGLTCV; listed as Homo sapiens)', 'Citrobacter diversus', 'MIC C. diversus', 12.5),
  ('PRT1092 (ILLGCTHQQCLNNGTCIPHFQDGQHGFSCLCPSGYTGSLCE; listed as Homo sapiens)', 'Citrobacter diversus', 'MIC C. diversus', 12.5),
  ('PRT1074 (QYRQCSGYCENFGTCQMAADGSRQCRCTAYFEGSRCE; listed as Homo sapiens)', 'Citrobacter diversus', 'MIC C. diversus', 12.5);

* * *

Quick reference: MIC (μg/mL) K. pneumonia of the listed items.
- System: Klebsiella pneumonia
- ASSAY_OVERVIEW: MIC against Gram-negative bacteria: Klebsiella pneumonia
- Format: cell-based
- CONDITION_SET: K. pneumonia; 10 h cultivation at 37° C.; 5×10^5 CFU/mL
VALUE_KIND: MIC (μg/mL) K. pneumonia

INSERT INTO results (substance, value_kind, assay_value) VALUES
  ('PRT217 (DIDECTIPPYCHQRCVNTPGSFYCQCSPGFQLAANNYTCV; listed as Homo sapiens)', 'MIC (μg/mL) K. pneumonia', '25 µg/mL'),
  ('PRT778 (QNQSCPVNYCYNQGHCYISQTLGCQPMCTCPPAFTDSRCF; listed as Homo sapiens)', 'MIC (μg/mL) K. pneumonia', '12.5 µg/mL'),
  ('PRT854 (TCSMANCQYGCDVVKGQIRCQCPSPGLQLAPDGRTCV; listed as Homo sapiens)', 'MIC (μg/mL) K. pneumonia', '12.5 µg/mL'),
  ('PRT815 (YGPSCQTRCSCANDGHCHPATGHCSCAPGWTGFSCQ; listed as Homo sapiens)', 'MIC (μg/mL) K. pneumonia', '12.5 µg/mL'),
  ('PRT188 (HVSDCARNPCAHGGTCHDLENGLMCTCPAGFSGRRCE; listed as Homo sapiens)', 'MIC (μg/mL) K. pneumonia', '12.5 µg/mL'),
  ('PRT823 (FGEACAQRCSCPPGAACHHVTGACRCPPGFTGSGCE; listed as Homo sapiens)', 'MIC (μg/mL) K. pneumonia', '12.5 µg/mL'),
  ('PRT835 (DVDECASSRGGCEHHCTNLAGSFQCSCEAGYRLHEDRRGCS; listed as Homo sapiens)', 'MIC (μg/mL) K. pneumonia', '12.5 µg/mL'),
  ('PRT803 (HGKGCQLPCQCRHGASCDPRAGECLCAPGYTGVYCE; listed as Homo sapiens)', 'MIC (μg/mL) K. pneumonia', '25 µg/mL');

* * *

- Tested on: E. coli BL21
- ASSAY_OVERVIEW: MIC against Gram-negative bacteria: E. coli BL21
- Type: cell-based
- CONDITION_SET: 96-well plate, 5×10^5 CFU/mL, 37° C., 10 h
Quick reference: MIC E. coli BL21 of the listed items.
VALUE_KIND: MIC E. coli BL21 (µg/mL)

INSERT INTO results (substance, value_kind, units_text, assay_value) VALUES
  ('PRT614 (CNCNLYGTMKQQSSCNPVTGQCECLPHVTGQDCGACDPGFYNLQSGQGCER; listed as Homo sapiens)', 'MIC E. coli BL21', 'µg/mL', 50),
  ('PRT597 (CDCNRAGTQKPICDPDTGMCRCREGVSGQRCDRCARGHSQEFPTCLQ; listed as Homo sapiens)', 'MIC E. coli BL21', 'µg/mL', 12.5),
  ('PRT627 (CTCNPAGSLDTCDPRSGRCPCKENVEGNLCDRCRPGTFNLQPHNPAGCSS; listed as Homo sapiens)', 'MIC E. coli BL21', 'µg/mL', 25),
  ('PRT711 (GDNMCRVNNGGCSTLCLAIPGGRVCACADNQLLDENGTTCT; listed as Homo sapiens)', 'MIC E. coli BL21', 'µg/mL', 12.5),
  ('PRT632 (CKCHPLGSQEDQCHPKTGQCTCRPGVTGQACDRCQLGFFGFSIKGCRA; listed as Homo sapiens)', 'MIC E. coli BL21', 'µg/mL', 25),
  ('PRT652 (DLDECAFPGVCPSGVCTNTAGSFSCKDCDGGYRPSPLGDSCE; listed as Homo sapiens)', 'MIC E. coli BL21', 'µg/mL', 25),
  ('PRT609 (CHCSPVGSLSTQCDSYGRCSCKPGVMGDKCDRCQPGFHSLTEAGCRP; listed as Homo sapiens)', 'MIC E. coli BL21', 'µg/mL', 25);
